Reference source: ChEMBL document CHEMBL4513216

# Tested on: Plasmodium berghei
# procedure-details: Screen against P. berghei liver stage (PbLuc), transformed with Luciferase, at 10uM
# Assay type: functional, HepG2
# condition-summary: tested at 10 uM
Screen size: about 69,000 compounds; about 8,600 (12%) showed an effect of 50% or more. The entries come from a sample that favours strong results as a whole.

>  <compound>
Cc1nc(C)n(C2CCCN(C(=O)c3sccc3C)C2)n1 (stereo unspecified)

>  <INHIBITION>
-19.6%

$$$$
>  <compound>
CCCN1CCC(c2nc3ccc(C)cn3n2)CC1

>  <INHIBITION>
29.4%

$$$$
>  <compound>
CCCN1CCC(c2nc3ccc(NCc4cccnc4)cn3n2)CC1

>  <INHIBITION>
52.1%

$$$$
>  <compound>
Cc1noc(C)c1-c1cncc(C2CCCN2Cc2c[nH]cn2)n1 (stereo unspecified)

>  <INHIBITION>
32.8%

$$$$
>  <compound>
CCN1CCC(c2nc3ccc(NC(C)C)cn3n2)CC1

>  <INHIBITION>
26.4%

$$$$
>  <compound>
c1cncc(CNc2ccc3nc(C4CCNCC4)nn3c2)c1

>  <INHIBITION>
29.4%

$$$$

* * *

# Tested on: Plasmodium berghei
# procedure-details: Screen against P. berghei liver stage (PbLuc), transformed with Luciferase, at 10uM
# Assay type: functional, HepG2
# condition-summary: tested at 10 uM
Out of some 69,000 compounds screened, about 8,600 (12%) showed an effect of 50% or more. What follows is part of a selection rich in strong results, with near analogues and random picks from the rest.
Parameter class (string): assigned from measured INHIBITION. Ranges: low range: < 20%; mid range: ≥ 20% and < 40%; high range: ≥ 40%

>  <compound>
CC(C)c1cc(C(=O)NCC2CCCN(c3ncccn3)C2)n(C)n1 (centres undefined)

>  <category-label>
high range

$$$$
>  <compound>
NC(=O)c1cc(NC(=O)N2CCCCCC2)ccc1F

>  <category-label>
low range

$$$$
>  <compound>
Cc1cnn(CC2CCCN2Cc2noc(CC(C)C)n2)c1 (centres undefined)

>  <category-label>
low range

$$$$
>  <compound>
CCOc1ncccc1NC(=O)N1CCCC(CNC(N)=O)C1 (centres undefined)

>  <category-label>
mid range

$$$$
>  <compound>
CN1Cc2c(C(=O)NC3CCCCC3)ncn2-c2ccccc2S1(=O)=O

>  <category-label>
high range

$$$$
>  <compound>
CC(C)CN1Cc2c(C(=O)N(C)C)ncn2-c2ccccc2S1(=O)=O

>  <category-label>
low range

$$$$
>  <compound>
CC(C)CN1Cc2c(C(=O)NC3CC3)ncn2-c2ccccc2S1(=O)=O

>  <category-label>
high range

$$$$
>  <compound>
CCCNC(=O)c1ncn2c1CN(CC(C)C)S(=O)(=O)c1ccccc1-2

>  <category-label>
high range

$$$$
>  <compound>
CCc1sc(C(=O)NC2CC2)cc1C

>  <category-label>
mid range

$$$$
>  <compound>
CCN1Cc2c(C(=O)NC(C)C)ncn2-c2ccccc2S1(=O)=O

>  <category-label>
mid range

$$$$
>  <compound>
Cc1cn(-c2ccccc2)nc1NS(=O)(=O)c1ccc(C(=O)O)cc1

>  <category-label>
mid range

$$$$
>  <compound>
CC1CCCN(C(=O)Nc2ccc(F)c(C(N)=O)c2)C1 (centres undefined)

>  <category-label>
mid range

$$$$
>  <compound>
Cc1cc(C)n(C2CCCN(C(=O)CCc3nccs3)C2)n1 (centres undefined)

>  <category-label>
mid range

$$$$
>  <compound>
CC(C)(C)c1cc(NC(=O)CN2CCn3c(nnc3C3CC3)C2)on1

>  <category-label>
low range

$$$$
>  <compound>
CCN1Cc2c(C(=O)NC)ncn2-c2ccccc2S1(=O)=O

>  <category-label>
high range

$$$$
>  <compound>
CCCC1CCCN(C(=O)Nc2cccnc2OC)CC1 (centres undefined)

>  <category-label>
high range

$$$$
>  <compound>
CSc1[nH]nc(NC(=O)c2ccccc2)c1C#N

>  <category-label>
mid range

$$$$
>  <compound>
CCN(CC)C(=O)C1CCN(C(=O)Nc2cccnc2OC)CC1

>  <category-label>
mid range

$$$$
>  <compound>
CCCC1CCCN(C(=O)Nc2ccc(F)c(C(N)=O)c2)CC1 (centres undefined)

>  <category-label>
high range

$$$$
>  <compound>
OC1CCN(CCCNc2nccc(C3CCCC3)n2)CC1

>  <category-label>
mid range

$$$$
>  <compound>
COc1ccc(Oc2ncccc2NC(=O)N2CCOC(C)C2)cc1 (centres undefined)

>  <category-label>
high range

$$$$
>  <compound>
CCOC[C@]12COC[C@H]1CN(Cc1ccc(F)c(F)c1)C2

>  <category-label>
low range

$$$$
>  <compound>
CCCN1CCC(c2cc(CCOc3ccc(C(F)(F)F)cc3)[nH]n2)C1 (centres undefined)

>  <category-label>
high range

$$$$
>  <compound>
COc1ncccc1NC(=O)N1CCC(CNC(C)=O)CC1

>  <category-label>
low range

$$$$
